test system: Plasmodium falciparum; experiment: Antimalarial activity against asexual blood stages of Plasmodium falciparum 3D7 infected in human erythrocytes incubated for 3 days by ELISA; assay type: functional, organism-based; conditions: 3D7, 72 h
Could you please report measured IC50 for the items listed next?
Could you give me the number in nM? Just the number is fine.

Request: For Plasmodium falciparum, provide IC50 of COc1cc(OC)cc(C(SCC(=O)N(C)O)P(=O)(O)O)c1 (racemic) please.
Response: 160

Request: Record CN(O)C(=O)CS(=O)(=O)C(c1cc(F)cc(F)c1)P(=O)(O)O (stereo not given) : what is its IC50 with Plasmodium falciparum?
Response: 19000

Request: So what IC50 did CN(O)C(=O)CS[C@@H](c1ccccc1)P(=O)(O)O get with Plasmodium falciparum?
Response: 87

Request: State its IC50 on Plasmodium falciparum: CN(O)C(=O)CSC(c1ccccc1)P(=O)(O)O (racemic)
Response: 190

---

assay: Apparent permeability in human Caco2 cells by LC-MS/MS analysis; assay type: ADME, cell-based; conditions: Caco-2
readout: Papp (×10⁻⁶ cm/s)
Enter your answer as a number in ×10⁻⁶ cm/s; do not include the unit.

Request: Quick one: Papp for CN(O)C(=O)CSC(c1ccccc1)P(=O)(O)O (racemic) ?
Response: 0.14

---

Please provide measured IC50 for the entries that follow.
biological target: 1-deoxy-D-xylulose 5-phosphate reductoisomerase, apicoplastic (Plasmodium falciparum (isolate 3D7), UniProt Q8IKG4); test: Inhibition of recombinant Plasmodium falciparum IspC expressed in Escherichia coli using 1-deoxy-D-xylulose 5-phosphate as substrate by photometric assay
Sequence (Q8IKG4 whole entry): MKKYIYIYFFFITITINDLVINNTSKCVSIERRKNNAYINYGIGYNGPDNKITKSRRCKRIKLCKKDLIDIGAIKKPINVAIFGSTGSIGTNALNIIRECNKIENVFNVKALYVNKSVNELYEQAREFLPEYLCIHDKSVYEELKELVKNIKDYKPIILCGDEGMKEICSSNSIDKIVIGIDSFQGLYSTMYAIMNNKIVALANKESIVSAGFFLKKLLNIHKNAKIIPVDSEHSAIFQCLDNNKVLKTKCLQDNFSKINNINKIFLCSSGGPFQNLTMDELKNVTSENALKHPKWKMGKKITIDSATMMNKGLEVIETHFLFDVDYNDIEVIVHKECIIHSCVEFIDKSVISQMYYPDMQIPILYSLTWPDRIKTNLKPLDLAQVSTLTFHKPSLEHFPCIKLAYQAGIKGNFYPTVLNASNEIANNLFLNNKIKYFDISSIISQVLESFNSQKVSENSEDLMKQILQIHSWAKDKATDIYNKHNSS
Your answer should be a plain number; it is taken to be in nM.

Request: Which IC50 value is on record for CN(O)C(=O)CSC(c1cc(F)cc(F)c1)P(=O)(O)O (racemic) ?
Response: 13

Request: Field request: IC50 | item: Cc1ccc(C(SCC(=O)NO)P(=O)(O)O)cc1 (racemic)
Response: 32

Request: Request the reported IC50 associated with CN(O)C(=O)CS(=O)(=O)C(c1ccc(Cl)c(Cl)c1)P(=O)(O)O (stereo not given)
Response: 1000

Request: Report IC50 for Cc1ccc(C(P(=O)(O)O)S(=O)(=O)CC(=O)N(C)O)cc1 (stereo not given) please.
Response: 8500

Request: May I ask what IC50 has been recorded for COc1cc(OC)cc(C(SCC(=O)N(C)O)P(=O)(O)O)c1 (racemic) ?
Response: 20

Request: What does the data say about its IC50? Entry: COc1cc(OC)cc(C(P(=O)(O)O)S(=O)(=O)CC(=O)N(C)O)c1 (stereo not given)
Response: 3700

Request: Would you kindly share the measured IC50 for CN(O)C(=O)CS(=O)(=O)C(c1cccc2ccccc12)P(=O)(O)O (stereo not given) ?
Response: 823000

Request: What value of measured IC50 is listed for O=C(CSC(c1cc(F)cc(F)c1)P(=O)(O)O)NO (racemic) ?
Response: 11

Request: What value of IC50 has been reported for the following compound? CN(O)C(=O)CS(=O)(=O)C(c1cc(F)cc(F)c1)P(=O)(O)O (stereo not given)
Response: 5500

Request: Can you share its IC50? I mean this compound: Cc1ccc(C(P(=O)(O)O)S(=O)(=O)CC(=O)NO)cc1 (stereo not given)
Response: 65000

---

molecular target: 1-deoxy-D-xylulose 5-phosphate reductoisomerase (Escherichia coli, UniProt W8T2T2); assay: Inhibition of recombinant Escherichia coli IspC expressed in Escherichia coli M15 using 1-deoxy-D-xylulose 5-phosphate as substrate by photometric assay
Sequence (W8T2T2 whole entry): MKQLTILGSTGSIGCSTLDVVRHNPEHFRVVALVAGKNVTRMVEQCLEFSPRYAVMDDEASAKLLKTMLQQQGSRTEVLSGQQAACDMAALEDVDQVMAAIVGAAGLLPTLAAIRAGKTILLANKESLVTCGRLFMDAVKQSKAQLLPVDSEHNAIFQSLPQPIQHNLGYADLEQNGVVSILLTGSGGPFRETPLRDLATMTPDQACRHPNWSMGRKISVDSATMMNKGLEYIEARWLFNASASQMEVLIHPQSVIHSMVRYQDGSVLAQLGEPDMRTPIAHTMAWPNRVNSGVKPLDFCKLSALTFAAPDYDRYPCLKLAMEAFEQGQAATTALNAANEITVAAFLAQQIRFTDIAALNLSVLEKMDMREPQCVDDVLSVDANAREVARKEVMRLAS
I'd be grateful if you could share measured log10(IC50) for these entries.
Could you please treat all values as log10 of IC50 in nM?

Request: Would you kindly share the measured log10(IC50) for Cc1ccc(C(SCC(=O)NO)P(=O)(O)O)cc1 (racemic) ?
Response: 2.46

Request: Any idea what log10(IC50) was measured for Cc1ccc(C(P(=O)(O)O)S(=O)(=O)CC(=O)N(C)O)cc1 (stereo not drawn) ?
Response: 4.56

Request: What does the data say about its log10(IC50)? Entry: COc1cc(OC)cc(C(SCC(=O)N(C)O)P(=O)(O)O)c1 (racemic)
Response: 2.20

Request: Which log10(IC50) is listed for CN(O)C(=O)CS(=O)(=O)C(c1cc(F)cc(F)c1)P(=O)(O)O (stereo not drawn) ?
Response: 3.63

Request: I am curious: what log10(IC50) value has been reported for CN(O)C(=O)CSC(c1cc(F)cc(F)c1)P(=O)(O)O (racemic) ?
Response: 1.26

Request: Any idea what its log10(IC50) is? The molecule is COc1cc(OC)cc(C(P(=O)(O)O)S(=O)(=O)CC(=O)NO)c1 (stereo not drawn)
Response: 3.65

Request: Entry under review: COc1cc(OC)cc(C(SCC(=O)NO)P(=O)(O)O)c1 (racemic) . Reported log10(IC50)?
Response: 2.83

Request: Reported log10(IC50), molecule O=CN(O)CCCP(=O)(O)O [FOSMIDOMYCIN SODIUM] : ____
Response: 2.34

---

Exercise: state measured MIC for each of the compounds provided.
system: Acinetobacter baumannii; test: Antimicrobial activity against Acinetobacter baumannii ATCC BAA 1605 incubated for 18 hrs by microbroth dilution assay; type: functional; conditions: ATCC BAA 1605, 18 h

Request: Query: MIC; subject: CN(O)C(=O)CS(=O)(=O)C(c1ccc(Cl)c(Cl)c1)P(=O)(O)O (centres undefined)
Response: > 100 µM

Request: Request the reported MIC associated with COc1cc(OC)cc(C(SCC(=O)N(C)O)P(=O)(O)O)c1 (racemic)
Response: > 100 µM

Request: Item COc1cc(OC)cc(C(SCC(=O)NO)P(=O)(O)O)c1 (racemic) has what recorded MIC?
Response: > 100 µM

Request: Could you tell me which MIC is on file for Cc1ccc(C(P(=O)(O)O)S(=O)(=O)CC(=O)N(C)O)cc1 (centres undefined) ?
Response: > 100 µM

Request: Fill blank: measured MIC of the compound CN(O)C(=O)CS(=O)(=O)C(c1cc(F)cc(F)c1)P(=O)(O)O (centres undefined) is ____.
Response: > 100 µM

Request: # input compound: O=C(CSC(c1cc(F)cc(F)c1)P(=O)(O)O)NO (racemic) ; wanted: its MIC
Response: > 100 µM

Request: Reported MIC, compound Cc1ccc(C(SCC(=O)N(C)O)P(=O)(O)O)cc1 (racemic) : ____
Response: > 100 µM

Request: // lookup MIC for CN(O)C(=O)CSC(c1cc(F)cc(F)c1)P(=O)(O)O (racemic)
Response: > 100 µM

Request: Fill blank: measured MIC of the compound COc1cc(OC)cc(C(P(=O)(O)O)S(=O)(=O)CC(=O)NO)c1 (centres undefined) is ____.
Response: > 100 µM

Request: I'd like to know its MIC. The compound in question is CN(O)C(=O)CSC(c1ccccc1)P(=O)(O)O (racemic)
Response: > 100 µM

Request: Tell me the measured MIC of CN(O)C(=O)CS(=O)(=O)C(c1cccc2ccccc12)P(=O)(O)O (centres undefined) , please.
Response: > 100 µM

Request: Look at this compound and give its reported MIC. CN(O)C(=O)CSC(c1cccc2ccccc12)P(=O)(O)O (racemic)
Response: > 100 µM

Request: Quick one: MIC of Cc1ccc(C(SCC(=O)NO)P(=O)(O)O)cc1 (racemic) ?
Response: > 100 µM

Request: Reported MIC, compound CN(O)C(=O)CSC(c1ccc(Cl)c(Cl)c1)P(=O)(O)O (racemic) : ____
Response: > 100 µM

---

Could you please report measured selectivity ratio for the items listed next?
experiment: Selectivity index, ratio of IC50 for human HeLa cells to IC50 for Plasmodium falciparum 3D7; type: toxicity; conditions: read-out: Ratio IC50

Request: What measured selectivity ratio goes with Cc1ccc(C(SCC(=O)NO)P(=O)(O)O)cc1 (racemic) ?
Response: > 150

Request: Which measured selectivity ratio value corresponds to O=C(CSC(c1cc(F)cc(F)c1)P(=O)(O)O)NO (racemic) ?
Response: > 810

Request: Item under review: COc1cc(OC)cc(C(SCC(=O)NO)P(=O)(O)O)c1 (racemic) . Reported selectivity ratio?
Response: > 3000

Request: I am curious: what selectivity ratio value has been reported for CN(O)C(=O)CSC(c1ccccc1)P(=O)(O)O (racemic) ?
Response: > 37000

Request: Value lookup for selectivity ratio; key = CN(O)C(=O)CSC(c1cc(F)cc(F)c1)P(=O)(O)O (racemic)
Response: > 6700

Request: Look up selectivity ratio for this compound: COc1cc(OC)cc(C(SCC(=O)N(C)O)P(=O)(O)O)c1 (racemic)
Response: > 6400

---

Record form. Attribute: pIC50. Fill in for each entry.
system: Plasmodium falciparum; assay: Antimalarial activity against asexual blood stages of Plasmodium falciparum 3D7 infected in human erythrocytes incubated for 3 days by ELISA; type: functional, organism-based; settings: 3D7, 72 h
In textbook form, pIC50 equals minus log to base ten of the concentration in mol/L.

Request: Recorded pIC50 for Cc1ccc(C(SCC(=O)NO)P(=O)(O)O)cc1 (racemic) , please?
Response: 5.19

Request: Name the reported pIC50 value associated with the compound COc1cc(OC)cc(C(P(=O)(O)O)S(=O)(=O)CC(=O)NO)c1 (stereo unspecified)
Response: 5.57

Request: Quick one: pIC50 for CN(O)C(=O)CSC(c1cc(F)cc(F)c1)P(=O)(O)O (racemic) ?
Response: 6.82

Request: Request the reported pIC50 associated with COc1cc(OC)cc(C(SCC(=O)NO)P(=O)(O)O)c1 (racemic)
Response: 6.48

Request: Could you share which pIC50 value was measured for O=C(CSC(c1cc(F)cc(F)c1)P(=O)(O)O)NO (racemic) ?
Response: 5.92
